Tested on: STING activation (IFNβ release) in iBMDMs
Procedure text: IFNβ release ELISA after STING ligand (or LPS) stimulation, iBMDMs
Format: cell-based, mouse
Run conditions: iBMDMs; 3′3′-cGAMP 10 μg/ml, 16 hours; compound 10 μM
Counter-ions that a name gives are not always drawn.
Endpoint label: fold increase in IFN-β release

Query block: Fill blank: measured fold increase in IFN-β release of the compound O=C(/C=C/c1ccc2ccccc2n1)c1ccncc1 [PFK15] is ____.
Result block: 0.68 fold

Query block: fold increase in IFN-β release lookup needed for CS(=O)(=O)c1ccc(-c2cnc(N)c(C(=O)Nc3ccccc3)n2)cc1 [VE-821] , thanks.
Result block: 0.45 fold

Query block: Look up fold increase in IFN-β release for this compound: NC(=O)c1ccc(I)c([N+](=O)[O-])c1 [Iniparib (BSI-201), Iniparib]
Result block: 0.23 fold

Query block: Given the entry Cc1c(Cl)cccc1Nc1ccccc1C(=O)O [Tolfenamic Acid] , report its measured fold increase in IFN-β release.
Result block: 2.19 fold

Query block: Which fold increase in IFN-β release reading was recorded for the compound CNc1nc(Nc2cnn([C@H]3CCN(C4COC4)C[C@@H]3F)c2Cl)ncc1C(F)(F)F [GNE-9605] ?
Result block: 1.10 fold

Query block: Which fold increase in IFN-β release is reported for this compound? CNC(=O)[C@H](Cc1c[nH]c2ccccc12)NC(=O)[C@@H](CC(=O)NO)CC(C)C [Ilomastat (GM6001, Galardin), Ilomastat]
Result block: 1.81 fold

Query block: Need fold increase in IFN-β release of Oc1cc(O)cc(/C=C/c2ccc(O)c(O)c2)c1 [Piceatannol] , thanks.
Result block: 0.42 fold

Query block: Requested read-out: fold increase in IFN-β release. Entry: COC(=O)C1=C(C#N)NC(C)=C(C(=O)OC(C)C)C1c1cccc([N+](=O)[O-])c1 (centres unmarked) [Nilvadipine]
Result block: 1.79 fold

Query block: Which fold increase in IFN-β release reading was recorded for the compound C[C@@H](NCCCc1cccc(C(F)(F)F)c1)c1cccc2ccccc12 [Cinacalcet HCl] ?
Result block: 0.55 fold

Query block: Param item = CC(C)c1cc(-c2n[nH]c(=O)n2-c2ccc3c(ccn3C)c2)c(O)cc1O [Ganetespib (STA-9090), Ganetespib] ; retrieve measured fold increase in IFN-β release.
Result block: 1.80 fold

Query block: Which value of fold increase in IFN-β release has been reported for Cc1cc(Nc2ccc(NC(=O)c3ccc(Nc4ccnc5ccccc45)cc3)cc2)nc(N)n1 [SGI-1027] in the records?
Result block: 0.37 fold

Query block: Entry O=C(Nc1cccc(Nc2ncc(Br)c(NCCc3cnc[nH]3)n2)c1)N1CCCC1 [BX-912] has what fold increase in IFN-β release?
Result block: 1.86 fold

Query block: Item C[C@@H](c1ncncc1F)[C@](O)(Cn1cncn1)c1ccc(F)cc1F [Voriconazole] has what recorded fold increase in IFN-β release?
Result block: 2.35 fold

Query block: Which measured fold increase in IFN-β release value corresponds to COc1ccccc1S(=O)(=O)Nc1ccc2c(c1)CN(C)C(=O)N2 [PFI-1 (PF-6405761)] ?
Result block: 0.52 fold

Query block: What does the data say about its fold increase in IFN-β release? Entry: O=C(Nc1ccccc1)N1CCN(c2nc(-c3ccccc3)ns2)CC1 [JNJ-1661010]
Result block: 1.03 fold

Query block: Using the record for Cl.Cl.NC1(c2ccc(-c3nc4ccn5c(=O)[nH]nc5c4cc3-c3ccccc3)cc2)CCC1 [MK-2206 2HCl] , report its fold increase in IFN-β release.
Result block: 1.02 fold

Query block: Need fold increase in IFN-β release, item O=C(c1cn(Cc2cncn2Cc2ccc(Br)cc2)cc1-c1cccc2ccccc12)N1CCOCC1 [LB42708]
Result block: 1.35 fold

---

Tested on: STING activation (IFNβ release) in iBMDMs
Procedure text: IFNβ release ELISA after STING ligand (or LPS) stimulation, iBMDMs
Type: cell-based, mouse
Run conditions: iBMDMs; 3′3′-cGAMP 10 μg/ml, 16 hours; compound 10 μM
Parameter threshold = 2 fold. Response is 1.0 when fold increase in IFN-β release meets or exceeds it, else 0.0.

Query block: Does CCCc1nc2c(C)cc(-c3nc4ccccc4n3C)cc2n1Cc1ccc(-c2ccccc2C(=O)O)cc1 [Telmisartan] have a reported fold increase in IFN-β release of at least 2 fold?
Result block: 1.0

Query block: fold increase in IFN-β release >= 2 fold for Nc1nc(CC(=O)Nc2ccc(CCNC[C@H](O)c3ccccc3)cc2)cs1 [Mirabegron] ?
Result block: 0.0

Query block: Say whether CCCN[C@H]1CCc2nc(N)sc2C1 [Pramipexole] shows fold increase in IFN-β release of 2 fold or more.
Result block: 1.0

Query block: // inclusive: fold increase in IFN-β release at least 2 fold? input: CC(C)C[C@H](NC(=O)[C@H](Cc1ccccc1)NC(=O)c1cnccn1)B(O)O [Bortezomib (PS-341), Bortezomib]
Result block: 0.0

Query block: // inclusive: fold increase in IFN-β release at least 2 fold? input: O=C(Nc1cccnc1)N1CCC(Cc2cccc(Oc3ccc(C(F)(F)F)cn3)c2)CC1 [PF-3845]
Result block: 1.0

Query block: In plain terms: is recorded fold increase in IFN-β release at least 2 fold for CC(/C=C/C(=O)NO)=C\[C@@H](C)C(=O)c1ccc(N(C)C)cc1 [Trichostatin A (TSA), Trichostatin A] ?
Result block: 0.0

Query block: Form field: fold increase in IFN-β release at least 2 fold? Entry: COc1ccccc1N1CCN(CC(O)COc2cccc3ccccc23)CC1 (centres unmarked) [Naftopidil]
Result block: 1.0

Query block: Assess whether reported fold increase in IFN-β release for CCCCc1nc(Cl)c(CO)n1Cc1ccc(-c2ccccc2-c2nn[nH]n2)cc1 [Losartan Potassium (DuP 753), Losartan Potassium] sits at 2 fold or higher.
Result block: 0.0

---

System: STING activation (IFNβ release) in iBMDMs
Procedure text: IFNβ release ELISA after STING ligand (or LPS) stimulation, iBMDMs
Type: cell-based, mouse
Run conditions: iBMDMs; 3′3′-cGAMP 10 μg/ml, 16 hours; compound 10 μM
Structures can show the parent of a compound that is named as a salt.
Endpoint label: fold increase in IFN-β release (fold)
Numeric answer only, unit fold assumed.

Query block: Item Cc1cc(-c2ccc(CC(=O)Nc3ccc(-c4cccnc4)cc3)cc2)ccn1 has what recorded fold increase in IFN-β release?
Result block: 0.13

Query block: Which fold increase in IFN-β release value is on record for CC(C)(C)n1nc(-c2ccc(Cl)cc2)c2c(N)ncnc21 ?
Result block: 0.14

Query block: Recorded fold increase in IFN-β release of CC(=O)Nc1nc2c(Oc3cc(-c4ccc(C(F)(F)F)cc4)ncn3)cccc2s1 , please.
Result block: 1.18

Query block: Reported fold increase in IFN-β release for Cc1[nH]c(/C=C2\C(=O)Nc3ccc(S(=O)(=O)N(C)c4cccc(Cl)c4)cc32)c(C)c1C(=O)N1CCN(C)CC1 : what is it?
Result block: 0.75

Query block: // query fold increase in IFN-β release value for entry C#Cc1cccc(Nc2ncnc3cc(OCCOC)c(OCCO)cc23)c1
Result block: 0.14

Query block: Returns the measured fold increase in IFN-β release for the input compound. Input: CCN(CC)CCNC(=O)c1cc(Cl)c(N)cc1OC [MetoclopraMide HCl]
Result block: 2.14

Query block: Record request: fold increase in IFN-β release value, item Cc1cc(C)c(S(=O)(=O)n2cc(C)cc2C)c(C)c1
Result block: 1.05

Query block: Which fold increase in IFN-β release value is on record for O=C(/C=C\n1cnc(-c2cc(C(F)(F)F)cc(C(F)(F)F)c2)n1)NNc1cnccn1 ?
Result block: 0.05

Query block: Can you look up the measured fold increase in IFN-β release of O=[N+]([O-])c1ccc2c(c1)S(=O)(=O)C=C2 for me?
Result block: 0.10

---

Tested on: STING activation (IFNβ release) in iBMDMs
Procedure text: IFNβ release ELISA after STING ligand (or LPS) stimulation, iBMDMs
Type: cell-based, mouse
Run conditions: iBMDMs; 3′3′-cGAMP 10 μg/ml, 16 hours; compound 10 μM
Where a name gives a salt, the structure may show the parent alone.
Assign fold increase in IFN-β release to each entry below.
# unit: fold | format: bare number

Query block: Which fold increase in IFN-β release value belongs to O=C(/C=C/c1cccc(S(=O)(=O)Nc2ccccc2)c1)NO ?
Result block: 0.70

Query block: Need fold increase in IFN-β release, item COc1cc2c(Nc3ccc(NC(=O)c4ccccc4)cc3)ncnc2cc1OCCCN1CCOCC1
Result block: 0.69

Query block: Given the entry Cn1cc(C2=C(c3cn(C4CCN(Cc5ccccn5)CC4)c4ccccc34)C(=O)NC2=O)c2ccccc21 , report its measured fold increase in IFN-β release.
Result block: 1.02

Query block: Name the recorded fold increase in IFN-β release for CC1C(=O)OC2C(O)C34C5CC(C(C)(C)C)C36C(OC(=O)C6O)OC4(C(=O)O5)C12O (stereo not drawn) [Ginkgolide B] .
Result block: 1.44

Query block: Item CCNC(=O)[C@H]1O[C@@H](n2cnc3c(N)nc(NCCc4ccc(CCC(=O)O)cc4)nc32)[C@H](O)[C@@H]1O [CGS 21680 HCl] has what recorded fold increase in IFN-β release?
Result block: 2.00

Query block: Recorded fold increase in IFN-β release of CCN(CC)C(=O)c1ccc(C2=CC3(CCNCC3)Oc3cccc(O)c32)cc1 [ADL5859 HCl] , please.
Result block: 0.95

Query block: // query fold increase in IFN-β release value for entry C[C@@H]1CCN(C(=O)CC#N)C[C@@H]1N(C)c1ncnc2[nH]ccc12
Result block: 1.49

Query block: Dear colleague, I am looking for the recorded fold increase in IFN-β release of the following compound: C1=C/COCc2cc(ccc2OCCN2CCCC2)Nc2nccc(n2)-c2cccc(c2)COC/1 [Pacritinib (SB1518), Pacritinib]
Result block: 1.58

Query block: Bench note: what fold increase in IFN-β release did CC(C)Oc1ccc(-c2cnc3c(-c4ccnc5ccccc45)cnn3c2)cc1 show?
Result block: 1.43

Query block: Recorded fold increase in IFN-β release of Cc1c(F)cc(C(=O)NC2CC2)cc1-c1ccc(C(=O)NCC(C)(C)C)cn1 [Losmapimod (GW856553X), Losmapimod] , please.
Result block: 1.20

Query block: Field request: fold increase in IFN-β release | item: COCCn1c2c([n+](Cc3cnccn3)c1C)C(=O)c1ccccc1C2=O [YM155 (Sepantronium Bromide), Sepantronium Bromide]
Result block: 0.30

Query block: For CC(C)N(CCCNC(=O)Nc1ccc(C(C)(C)C)cc1)C[C@H]1O[C@@H](n2cc(Br)c3c(N)ncnc32)[C@H](O)[C@@H]1O , what is its reported fold increase in IFN-β release?
Result block: 1.90

Query block: Entry under review: CC(=O)O[C@H]1C[C@@H]2CC[C@@H]3[C@H](CC[C@@]4(C)[C@H]3C[C@H]([N+]3(C)CCCCC3)[C@@H]4OC(C)=O)[C@@]2(C)C[C@@H]1[N+]1(C)CCCCC1.[Br-].[Br-] [Pancuronium dibromide] . Reported fold increase in IFN-β release?
Result block: 1.20

Query block: Reported fold increase in IFN-β release, compound O=c1ncccn1[C@@H]1O[C@H](CO)[C@@H](O)[C@H]1O : ____
Result block: 1.50

Query block: Given the entry NCC(=O)Nc1ccc(-n2nc(C(F)(F)F)cc2-c2ccc3c(ccc4ccccc43)c2)cc1 , report its measured fold increase in IFN-β release.
Result block: 0.31

Query block: # input compound: NC(=O)C1CCCc2c1[nH]c1ccc(Cl)cc21 (stereo not drawn) [EX 527 (Selisistat), Selisistat] ; wanted: its fold increase in IFN-β release
Result block: 0.98

Query block: Which measured fold increase in IFN-β release value corresponds to Cn1cc(-c2ccc3c(c2)CCN3C(=O)Cc2cccc(C(F)(F)F)c2)c2c(N)ncnc21 ?
Result block: 1.40

Query block: Look at this compound and give its reported fold increase in IFN-β release. CNCc1ccc(-c2cc(-c3nc(-c4ccc(S(=O)(=O)C(C)C)cc4)cnc3N)on2)cc1
Result block: 0.86

Query block: Using the record for Cc1sc2c(c1C)C(c1ccc(Cl)cc1)=N[C@@H](CC(=O)Nc1ccc(O)cc1)c1nnc(C)n1-2 , report its fold increase in IFN-β release.
Result block: 0.43

Query block: Query (compound): CCc1cccc2c3c([nH]c12)C(CC)(CC(=O)O)OCC3 (stereo not drawn) ; field requested: fold increase in IFN-β release
Result block: 0.35

Query block: Recorded fold increase in IFN-β release of CC(C)(C)NC(=O)[C@H]1CC[C@H]2[C@@H]3CC[C@H]4NC(=O)C=C[C@]4(C)[C@H]3CC[C@]12C [Finasteride] , please.
Result block: 0.85

Query block: # lookup: fold increase in IFN-β release of CC(NC(=O)c1ccccc1/N=C/c1c(O)ccc2ccccc12)c1ccccc1 (stereo not drawn)
Result block: 0.26

Query block: Report fold increase in IFN-β release for N#Cc1ccc(C(c2ccc(C#N)cc2)n2cncn2)cc1 please.
Result block: 0.61

Query block: // query fold increase in IFN-β release value for entry Cc1ccc(NC(=O)C2(c3ccc4c(c3)OC(F)(F)O4)CC2)nc1-c1cccc(C(=O)O)c1
Result block: 1.07

Query block: Need fold increase in IFN-β release, item O=C(NOC[C@H](O)CO)c1ccc(F)c(F)c1Nc1ccc(I)cc1F
Result block: 0.39

Query block: So what's the measured fold increase in IFN-β release for this one? O=C(/C=C\n1cnc(-c2cc(C(F)(F)F)cc(C(F)(F)F)c2)n1)N1CC(F)(F)C1
Result block: 0.54

Query block: State the recorded fold increase in IFN-β release for this entry: CCn1c2ccccc2c2cc(Nc3ccnc(NCCCN4CCOCC4)n3)ccc21
Result block: 1.69

Query block: Value lookup for fold increase in IFN-β release; key = Cc1ccccc1C(=O)Nc1ccc(C(=O)N2CCCC(O)c3cc(Cl)ccc32)c(C)c1 (stereo not drawn)
Result block: 1.20

Query block: Query: fold increase in IFN-β release; subject: CN1CCC(CNc2ccc3ncc(-c4cccc(OC(F)(F)F)c4)n3n2)CC1 [SGI-1776 free base]
Result block: 0.65

Query block: Query (compound): O=C(Oc1cc(S(=O)(=O)c2ccccc2)ccc1[N+](=O)[O-])c1ccc(Cl)cc1 ; field requested: fold increase in IFN-β release
Result block: 3.11

The values you see were collected from patent US11179412B2.
